Where do these numbers come from? They come from paper PMC8222333.

# binding signal annotations
assayed_system: dAsCas12a K548R (Acidaminococcus sp., UniProt U2UMQ6 1-1307, K548R;D908A;E993A;D1235A)
protocol: Spec-seq (native PAGE EMSA with sequencing of bound and unbound); 25 mM Tris-HCl pH 7.4, 150 mM KCl, 5 mM MgCl2, 10% glycerol, 1 mM DTT, 40 ng/uL salmon sperm DNA; 400 nM Cas12a, 480 nM crRNA, 50 nM library, 37 C 1 h; native PAGE at room temperature; high values mean tight binding
particulars: protein: recombinant
Answer in lnKA, number only, no unit symbol.

Some binders with known binding signal results, for comparison:
binder="GTTC (dsDNA) DNA 1: GCTATCTAGTGCTCAGTACGCACTGGTTCAGGAAACTTCTGGCAGGACCAGGTCATGAGATCGGAAGAGCACACGTCTGAACTCCAGTCA DNA 2: TGACTGGAGTTCAGACGTGTGCTCTTCCGATCTCATGACCTGGTCCTGCCAGAAGTTTCCTGAACCAGTGCGTACTGAGCACTAGATAGC RNA: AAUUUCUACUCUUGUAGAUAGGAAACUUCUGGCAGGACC" reported_endpoint="binding signal" quantitative_readout=-5.84
binder="TGTA (dsDNA) DNA 1: GCTATCTAGTGCTCAGTACGCACTGTGTAAGGAAACTTCTGGCAGGACCAGGTCATGAGATCGGAAGAGCACACGTCTGAACTCCAGTCA DNA 2: TGACTGGAGTTCAGACGTGTGCTCTTCCGATCTCATGACCTGGTCCTGCCAGAAGTTTCCTTACACAGTGCGTACTGAGCACTAGATAGC RNA: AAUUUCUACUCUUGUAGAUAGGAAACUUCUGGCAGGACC" reported_endpoint="binding signal" quantitative_readout=-7.23
binder="TTAC (dsDNA) DNA 1: GCTATCTAGTGCTCAGTACGCACTGTTACAGGAAACTTCTGGCAGGACCAGGTCATGAGATCGGAAGAGCACACGTCTGAACTCCAGTCA DNA 2: TGACTGGAGTTCAGACGTGTGCTCTTCCGATCTCATGACCTGGTCCTGCCAGAAGTTTCCTGTAACAGTGCGTACTGAGCACTAGATAGC RNA: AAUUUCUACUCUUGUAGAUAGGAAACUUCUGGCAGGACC" reported_endpoint="binding signal" quantitative_readout=-8.18

Returns the measured binding signal for the input binder. Input: TTGA (dsDNA) DNA 1: GCTATCTAGTGCTCAGTACGCACTGTTGAAGGAAACTTCTGGCAGGACCAGGTCATGAGATCGGAAGAGCACACGTCTGAACTCCAGTCA DNA 2: TGACTGGAGTTCAGACGTGTGCTCTTCCGATCTCATGACCTGGTCCTGCCAGAAGTTTCCTTCAACAGTGCGTACTGAGCACTAGATAGC RNA: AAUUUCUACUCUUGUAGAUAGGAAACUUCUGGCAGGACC
-8.53
